Parameter IC50, tested on Gag-Pol polyprotein [588-1027]/[588-1147] (Human immunodeficiency virus 1, UniProt P04585), listed per item.

molecule	target_under_test	IC50
CCc1cc(C(=O)CN2C(=O)c3ccccc3C2=O)c(OC)nc1C	Gag-Pol polyprotein [588-1027]/[588-1147] (Human immunodeficiency virus 1, UniProt P04585)	> 300 µM
CCc1cc(CN2C(=O)c3ccccc3C2=O)c(OC)nc1C	Gag-Pol polyprotein [588-1027]/[588-1147] (Human immunodeficiency virus 1, UniProt P04585)	16 µM
O=C1c2ccccc2C(=O)N1CCc1cccnc1O	Gag-Pol polyprotein [588-1027]/[588-1147] (Human immunodeficiency virus 1, UniProt P04585)	> 300 µM
CCc1cc(CCN2C(=O)c3ccccc3C2=O)c(OC)nc1C	Gag-Pol polyprotein [588-1027]/[588-1147] (Human immunodeficiency virus 1, UniProt P04585)	6.2 µM
CCc1cc(C(O)CN2C(=O)c3ccccc3C2=O)c(O)nc1C (stereo not drawn)	Gag-Pol polyprotein [588-1027]/[588-1147] (Human immunodeficiency virus 1, UniProt P04585)	> 300 µM
CCc1cc(C(=O)CN2C(=O)c3ccccc3C2=O)c(=O)[nH]c1C	Gag-Pol polyprotein [588-1027]/[588-1147] (Human immunodeficiency virus 1, UniProt P04585)	> 300 µM
CCc1cc(C(O)CN2C(=O)c3ccccc3C2=O)c(OC)nc1C (stereo not drawn)	Gag-Pol polyprotein [588-1027]/[588-1147] (Human immunodeficiency virus 1, UniProt P04585)	> 300 µM
CCc1cc(CCCN2C(=O)c3ccccc3C2=O)c(OC)nc1C	Gag-Pol polyprotein [588-1027]/[588-1147] (Human immunodeficiency virus 1, UniProt P04585)	> 300 µM
